Each entry below lists one item and its recorded protein stability index value.
B1: STEAP1 (parent)
chain: LWKMKPRRNLEEDDYLHKDTGETS

# Variants of: B1
# experimental-details: protein stability index of a GFP-peptide fusion (GPS, HEK-293T) (PSI 1-6); higher = more stable;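 also: lentivirally expressed fusions sorted by FACS into six bins by GFP to DsRed ratio, PSI derived from sequencing read proportions per bin multiplied by bin number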
# measurement-parameters: c terminus: a fixed tail appended
I only need the number, thanks.

Examples with answers:
residue_change=H17I readout_label="protein stability index" test_result=4.11
residue_change=S24H readout_label="protein stability index" test_result=4.31
residue_change=D14K readout_label="protein stability index" test_result=4.53
residue_change=D19G readout_label="protein stability index" test_result=4.45
residue_change=H17L readout_label="protein stability index" test_result=4.09
residue_change=R8G readout_label="protein stability index" test_result=4.07
residue_change=L16G readout_label="protein stability index" test_result=5.08
residue_change=L1Q readout_label="protein stability index" test_result=5.18

Entry under review: T20H . Reported protein stability index?
4.26

Another variant: L1M
4.59

Another variant: L16D
4.92

Another variant: S24I
3.96

Another variant: R7I
4.26

Another variant: R8F
3.93

Another variant: K5F
2.77

Another variant: D14C
4.23

Another variant: P6R
3.65
